Reference source: the NIST ThermoML archive (doi:10.1016/j.fluid.2018.06.013)

- assaySummary: activity coefficient (dimensionless); of the first substance listed, at infinite dilution; xn = mol fraction of the nth substance listed
- testSettings: 343.15 K; 100 kPa; Liquid; Chromatography; x1 = 0
measuredEndpoint: activity coefficient

(A) COC(C)(C)C [2-methoxy-2-methylpropane] + CCCC[N+]1(C)CCCC1.N#CN=C=[N-]
(B) C=CCCCCCC [oct-1-ene] + CCCC[N+]1(C)CCCC1.N#CN=C=[N-]
(C) CCOC(C)=O [ethyl acetate] + CCCC[N+]1(C)CCCC1.N#CN=C=[N-]
From the items above, give an ordering by activity coefficient that starts at the lowest reported number. Please list the labels in the order you were asked to rank them. C, A, B

(1) CCCC=O [butanal] + CCCC[N+]1(C)CCCC1.N#CN=C=[N-]
(2) C=CCCCCCCCC [1-decene] + CCCC[N+]1(C)CCCC1.N#CN=C=[N-]
(3) CCCCO [butan-1-ol] + CCCC[N+]1(C)CCCC1.N#CN=C=[N-]
(4) C=C(C)c1ccccc1 [(1-methylethenyl)benzene] + CCCC[N+]1(C)CCCC1.N#CN=C=[N-]
Ascending by activity coefficient, please. List the labels in the requested order. 3, 1, 4, 2

(A) CCC(C)O (configuration not stated) [butan-2-ol] + CCCC[N+]1(C)CCCC1.N#CN=C=[N-]
(B) CCCCCCCC [octane] + CCCC[N+]1(C)CCCC1.N#CN=C=[N-]
Smaller activity coefficient value, A vs B ? Record your answer as the label of the chosen record. A
(A: 0.859, B: 96)

(P) CC(C)O [propan-2-ol] + CCCC[N+]1(C)CCCC1.N#CN=C=[N-]
(Q) CCCCCCC [heptane] + CCCC[N+]1(C)CCCC1.N#CN=C=[N-]
For the two items P and Q , which reports the higher activity coefficient value? API: response body contains the label of the selected item. Q
(Q: 66.5, P: 0.714)

(A) C=Cc1ccccc1 [styrene] + CCCC[N+]1(C)CCCC1.N#CN=C=[N-]
(B) CCCOCCC [dipropyl ether] + CCCC[N+]1(C)CCCC1.N#CN=C=[N-]
(C) C#CCCCCCC [1-octyne] + CCCC[N+]1(C)CCCC1.N#CN=C=[N-]
Ascending sort, activity coefficient. Output the labels ranked as instructed. A, C, B
(A: 1.7, C: 9.41, B: 16.8)
